test-system: CD28 (human) (UniProt P10747)
protocol-text: flow cytometry, Jurkat cells (CD28)
endpoint-label: MFI at 33.3 nM (MFI)

binder="variant CD80 IgV-Fc E35D/M47L/A71G/D90G (Fc fusion) VIHVTKEVKEVATLSCGHNVSVEELAQTRIYWQKDKKMVLTMMSGDLNIWPEYKNRTIFDITNNLSIVILGLRPSDEGTYECVVLKYEKGAFKREHLAEVTLSVKAD" observed_value=1330
binder="variant CD80 IgV-Fc (inert) H18Y/A26P/E35D/M47Y/V68I/A71G/D90G (Fc fusion) VIHVTKEVKEVATLSCGYNVSVEELPQTRIYWQKDKKMVLTMMSGDYNIWPEYKNRTIFDITNNLSIIILGLRPSDEGTYECVVLKYEKGAFKREHLAEVTLSVKAD" observed_value=1820

Every entry's value here was drawn from patent US20220177587A1.
